The values you see were collected from ChEMBL document CHEMBL1208734.

Test: Inhibition of synthetic melanin polymerization after 30 to 60 mins by UV-vis spectroscopic analysis
Type: functional
Endpoint: IC50 (µM)
Lab book: enter the figure in µM, no units written.

Entry OB(O)c1ccc(F)cc1 , IC50 reported as 1840

So, Cc1ccc(B(O)O)cc1 [TOLYL BORONIC ACID] ? Its IC50 was 4450

Form: compound = OB(O)c1ccc(Cl)cc1 ; IC50 = 1310

Item: N#Cc1ccc(B(O)O)cc1 | IC50: 590

IC50 reported for this compound OB(O)c1ccc(Br)cc1 : 1030

// O=[N+]([O-])c1ccc(B(O)O)cc1 : IC50 value = 550

Kindly note the recorded IC50 for COc1ccc(B(O)O)cc1 , which is 6200

Entry under test: CC(=O)c1ccc(B(O)O)cc1 . Its IC50 was 690

The recorded IC50 for OB(O)c1ccc(C(F)(F)F)cc1 is 800

// IC50 lookup, compound = OB(O)c1ccccc1 [PHENYLBORONIC ACID] , result: 1840
